Source: patent US20070020196A1

- assay comment: Solubility of selected steroids enhanced by cyclodextrins (phase solubility)
- experimental setup: aqueous cyclodextrin solution, aqueous with cosolvent or surfactant or cyclodextrin, thermodynamic from solid, Solubility of steroid, (SBE)5.2 γ-CD 0.1 M
observed property: solubility (mM)

compound	units text	solubility
C[C@@H]1C[C@H]2[C@@H]3CCC4=CC(=O)C=C[C@]4(C)[C@@]3(Cl)[C@@H](O)C[C@]2(C)[C@@]1(O)C(=O)CCl [Mometasone, mometasone]	mM	8.89
CCC(=O)O[C@]1(C(=O)SCF)[C@H](C)C[C@H]2[C@@H]3C[C@H](F)C4=CC(=O)C=C[C@]4(C)[C@@]3(F)[C@@H](O)C[C@@]21C [Fluticasone propionate, fluticasone propionate]	mM	2.15
C[C@@H]1C[C@H]2[C@@H]3C[C@H](F)C4=CC(=O)C=C[C@]4(C)[C@@]3(F)[C@@H](O)C[C@]2(C)[C@@]1(O)C(=O)SCF [Fluticasone, fluticasone]	mM	14.4

A: C[C@@H]1C[C@H]2[C@@H]3CCC4=CC(=O)C=C[C@]4(C)[C@@]3(Cl)[C@@H](O)C[C@]2(C)[C@@]1(OC(=O)c1ccco1)C(=O)CCl [Mometasone furoate, mometasone furoate]
B: CCCC1O[C@@H]2C[C@H]3[C@@H]4CCC5=CC(=O)C=C[C@]5(C)[C@H]4[C@@H](O)C[C@]3(C)[C@]2(C(=O)CO)O1 (some centres unmarked) [Budesonide]
Determine, for A and B , which has the greater value of solubility. I would appreciate it if you answered with the label of your choice.
B
(B: 8.62 mM, A: 0.939 mM)
